Measured On: Glc(b1-6)Glc
Measurement Protocol: glycan array binding signal (z-score within array); higher = stronger binding
Settings: glycan notation: IUPAC condensed, linker removed
About 410 targets per protein were measured; listed, in parts, are those with the strongest signals and a random draw of the rest.
Parameter Measured: glycan array binding signal (z-score)
Lab note: record just the number, no unit beside it.

Lab note: measured glycan array binding signal (z-score) of FliC (Clostridium difficile) (protein) MRVNTNVSALIANNQMGRNVNGQSKSMEKLSSGVRIKRAADDAAGLAISEKMRAQIKGLDQAGRNVQDGISVVQTAEGSLEETGNILQRMRTLSLQSANEINNTEEREKIADELTQLKDEIERISSSTEFNGKKLLDGTSSTIRLQVGASYGTNVSGTSNNNNEIKIQLVNTASIMASAGITTASIGSMKAGGTTGTDAAKTMVSSLDAALKSLNSSRAKLGAQQNRLESTQNNLNNTLENVTAAESRIRDTDVASEMVNLSKMNILVQASQSMLAQANQQPQGVLQLLG was 1.72

Lab note: measured glycan array binding signal (z-score) of SJCP1531 (Schistosoma japonicum) (protein) MFKVRIINLVNISTVLLLINLLQTKSQVNVEQLVTVLEVNIKAQLKNKTTEVLVEWNPLYQDNSMPEYRKLLDETCKLFLPFVNEKVPPSTYGGECTNANFSEAPQDGSYSRVNAELRLIYKYSDNPQIQTDRLQDDLNDREEFITSESSFVAYNPKFTVKIEKLFIPISESQTTPPPTTAKNDASKKDDDDNGGEDSKAPIDTFAMTASGNKGKKDDDDNGGEDSKAPIDTFAMTASGSKDERSTWTIIGIITLVVLIFVVIGGGITVFVKRC was -0.797
